Let's look at some molecules and their measured fraction unbound.
Test: Mouse plasma protein binding
Type: in vitro ADME
Conditions: fraction bound, read-out: PPB (converted)

Exam item: Can you share its fraction unbound? I mean this molecule: CN(CC1CCOCC1)c1ncnc2[nH]c(-c3cn(Cc4cccnc4)nn3)cc12 [Compound 27b]
Marked response: < 0.01

Exam item: Another molecule to look at: Cc1cccc(CN(C)c2ncnc3[nH]c(-c4cn(Cc5cccnc5)nn4)cc23)c1 [Compound 27a]
Marked response: < 0.01

Exam item: And the next one, FC(F)(F)c1ccc(CNc2ccc(Cc3c[nH]c4ncc(Cl)cc34)cn2)cn1 [PLX-3397, pexidartinib, reference compound] ?
Marked response: < 0.01
